Target: Ectonucleotide pyrophosphatase/phosphodiesterase family member 1 (Homo sapiens, UniProt P22413)
Sequence (P22413 whole entry): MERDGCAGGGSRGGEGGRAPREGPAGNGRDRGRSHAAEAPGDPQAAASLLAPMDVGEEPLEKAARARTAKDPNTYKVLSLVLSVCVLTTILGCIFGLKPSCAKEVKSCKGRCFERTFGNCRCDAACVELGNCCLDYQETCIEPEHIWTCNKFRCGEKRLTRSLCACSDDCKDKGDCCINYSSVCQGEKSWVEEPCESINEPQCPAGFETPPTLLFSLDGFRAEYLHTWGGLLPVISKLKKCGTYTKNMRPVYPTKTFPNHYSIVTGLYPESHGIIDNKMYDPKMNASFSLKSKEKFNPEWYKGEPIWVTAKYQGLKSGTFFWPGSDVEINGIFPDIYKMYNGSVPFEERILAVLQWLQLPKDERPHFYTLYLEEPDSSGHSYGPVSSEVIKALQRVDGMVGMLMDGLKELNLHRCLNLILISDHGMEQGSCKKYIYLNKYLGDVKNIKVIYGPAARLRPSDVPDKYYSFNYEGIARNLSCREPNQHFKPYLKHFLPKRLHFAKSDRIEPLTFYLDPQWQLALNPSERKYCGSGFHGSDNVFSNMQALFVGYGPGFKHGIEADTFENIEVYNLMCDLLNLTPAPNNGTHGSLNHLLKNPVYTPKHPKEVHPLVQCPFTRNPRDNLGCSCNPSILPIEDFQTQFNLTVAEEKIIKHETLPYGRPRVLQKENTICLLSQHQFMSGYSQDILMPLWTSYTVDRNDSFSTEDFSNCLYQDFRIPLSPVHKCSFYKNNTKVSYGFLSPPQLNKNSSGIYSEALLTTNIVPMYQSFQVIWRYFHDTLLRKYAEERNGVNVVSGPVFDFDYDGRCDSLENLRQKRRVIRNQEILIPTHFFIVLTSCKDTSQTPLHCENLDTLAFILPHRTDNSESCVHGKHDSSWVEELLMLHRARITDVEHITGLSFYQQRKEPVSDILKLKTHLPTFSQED
Assay: Inhibition of ENPP1 in HEK293 cells using 2',3'-cGAMP as substrate by AMP-Glo assay
Type: cell-based

[
  {
    "Compound": "COc1cccc2c(N3CCC(CC(CNC(=O)[C@@H](N)C(C)(C)C)P(=O)(O)O)CC3)ncnc12 (stereo partly specified)",
    "IC50": "< 10 nM"
  }
]

---

Molecular target: Ectonucleotide pyrophosphatase/phosphodiesterase family member 1 (Homo sapiens, UniProt P22413)
Experiment: Inhibition of ENNP1 (unknown origin) using 2',3'-cGAMP as substrate preincubated with compound followed by substrate addition and measured after 60 mins by AMP-Glo reagent based assay
pIC50: −log10 of the molar value.
Value Type: pIC50

[
  {
    "Chemical Smiles": "COc1ncc2nc(C(F)(F)F)n(Cc3ncc(S(N)(=O)=O)cc3F)c2c1-c1ccccc1",
    "Experimental Result": "> 9.00"
  }
]
